- TARGET DESC: CSAID binding protein (CSBP) in THP.1 cytosol (Homo sapiens, UniProt Q16539)
- Construct: endogenous in cells; host or cells: THP.1 (ATCC TIB 202), cytosolic fraction (100,000 x g supernatant)
- Sequence (Q16539 whole entry): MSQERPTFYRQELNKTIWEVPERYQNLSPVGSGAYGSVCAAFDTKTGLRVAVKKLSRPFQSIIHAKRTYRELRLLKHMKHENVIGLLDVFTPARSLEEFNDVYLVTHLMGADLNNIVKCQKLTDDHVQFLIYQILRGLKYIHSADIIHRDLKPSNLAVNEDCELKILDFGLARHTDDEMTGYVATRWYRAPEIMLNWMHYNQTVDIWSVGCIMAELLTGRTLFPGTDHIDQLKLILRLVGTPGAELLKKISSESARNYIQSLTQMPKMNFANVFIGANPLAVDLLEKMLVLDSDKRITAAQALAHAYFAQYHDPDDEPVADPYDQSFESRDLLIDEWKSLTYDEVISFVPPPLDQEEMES
- ASSAY NAME: CSAID binding assay with 3H-Compound I and THP.1 cytosol
- STUDY CONDITIONS: Table II; read-out: IC50 in competitive CSAID binding assay
READOUT NAME: pIC50
Please express pIC50 as -log10 of the molar concentration.

CC(Cc1ccc(O)c(O)c1)C(C)Cc1ccc(O)c(O)c1 (centres unmarked) [NDGA] | 3.81

Now for the compound whose pIC50 we want.
# get_value(readout='pIC50', item= NC(=O)N1C(=O)/C(=C(\O)c2cccs2)c2cc(Cl)ccc21 [Tenidap] )
3.86
